Origin of the recorded values: the supplement of paper PMC6757056

B1: library; a variant is named by its letters at N, in order (parent)
chain: GCUGUCACCGGAAUACCAGCAUCGUCUUGAUGCCCUUGGAAGUCCGGUCUGAUGAGUCCNNNNNGGACGAAACAGC

Variants of: B1
Assay: normalized RNA/DNA level with ligand (relative to sTRSVctl = 100) (log10 (% of sTRSVctl)); higher = less ribozyme self-cleavage, higher mRNA level
Details: ligand concentration (+) RNA-Seq: 5 mM, HEK293T, reporter: mCherry (pCS4076), ligand present: yes
Test readout: normalized RNA/DNA level with ligand (log10)

In [3]: df
Out[3]:
    variant_key  test_result
 0        UAGCA         1.95
 1        CUAAC         1.94
 2        AAGGA            2
 3        AUAUA         2.01
 4        ACACG         1.93
 5        CUUAA         1.98
 6        UAAGA         1.98
 7        AGGCU         1.96
 8        CGUGA         1.97
 9        GUACU            2
10        AAAUG         2.03
11        ACGCU         2.08
12        UAUAC         2.06
13        AAGUC         1.96
14        CAAUA         1.96
15        CGCUA         1.87
16        ACUAG            2
17        CCAUU         1.98
18        CGGAC         1.93
19        GAUUU         2.05
20        CGGCA         1.96
21        AAGGU         1.94
22        AUAAC         2.05
23        AGCCU         1.98
24        CUACU         1.96
25        UAACG         1.99
26        UGCAU         1.92
27        CUCAU         1.97
28        AAUGC            2
29        ACUUU         2.01
30        UCCUU         2.01
31        CGUAC         1.92
32        CUGAU            2
33        CACGC         2.04
34        GACGG         1.93
35        UAGAA         1.91
36        AUCCA            2
37        UAUUU         1.99
38        AAUCC         2.04
39        GAACU         2.03
40        ACUCC            2
41        CGGUA         1.89
42        AUUAC         1.99
43        UAAGG          2.1
44        CAUAU         2.02
45        ACCGU         1.95
46        CCGAC         1.94
47        CCCUU         1.99
48        UCACC         1.92
49        CGGGA         2.01
50        ACCUG         2.01
51        CAAGU         1.98
52        CAACC         1.91
53        UUACU         2.08
54        UCUAA         2.03
55        AAGGC         1.93
56        GAAUU         2.02
57        UAGCG         1.94
58        AAAUC         1.89
59        AAUAG         1.97
60        UGGGA         2.02
61        CCUUA         1.99
62        ACUAC         1.98
63        UCAAC         1.89
64        CCGUC         2.11
65        AAUAC         1.95
66        CUGAA         2.01
67        UCACA            2
68        CAUGC         2.03
69        CAGAU            2
70        AAACA         1.91
71        ACACA         1.94
72        ACAAG         1.99
73        CACUU            2
74        CUCAA         1.99
75        AUCGG         1.91
76        AACAC         1.94
77        CACGA            2
78        UCAAA         1.97
79        UCUAU         2.05
80        CCCGC         2.02
81        CCUCC         2.09
82        CGGUC         1.98
83        UUCAA         2.08
84        GAGCG         1.94
85        ACCCA         2.02
86        AGCAG         2.03
87        UAAUG         1.93
88        UCGCC            2
89        UCCGG         1.97
90        AACUU         1.98
